Each record here notes measured IC50.
assay: Inhibition of yeast alpha-glucosidase using pNP-alpha-G as substrate measured after 30 mins; set-up: species or system Saccharomyces cerevisiae
State the answer as a number, implicitly in µM.

CCCCNC(=O)[C@@H](Cc1ccc(O)c(O)c1)OC(=O)/C=C/c1ccc(O)c(O)c1 ... 106

Challenge: Recorded IC50 of CN(C)CCCNC(=O)[C@@H](Cc1ccc(O)c(O)c1)OC(=O)/C=C/c1ccc(O)c(O)c1 , please.
Response given: 65.5

Challenge: Consider next the compound O=C(/C=C/c1ccc(O)c(O)c1)O[C@H](Cc1ccc(O)c(O)c1)C(=O)NCCc1ccccc1 in the same way.
Response given: 87.7

Challenge: Consider next the compound O=C(/C=C/c1ccc(O)c(O)c1)O[C@H](Cc1ccc(O)c(O)c1)C(=O)NCCN1CCCCC1 in the same way.
Response given: 53.3

Challenge: Consider next the compound O=C(/C=C/c1ccc(O)c(O)c1)O[C@H](Cc1ccc(O)c(O)c1)C(=O)NCCc1ccc(O)cc1 in the same way.
Response given: 74.9

Challenge: Consider next the compound Cc1ccc(CNC(=O)[C@@H](Cc2ccc(O)c(O)c2)OC(=O)/C=C/c2ccc(O)c(O)c2)cc1 in the same way.
Response given: 109

Challenge: Consider next the compound CC(C)CNC(=O)[C@@H](Cc1ccc(O)c(O)c1)OC(=O)/C=C/c1ccc(O)c(O)c1 in the same way.
Response given: 108

Challenge: Consider next the compound CN1CCN(CCNC(=O)[C@@H](Cc2ccc(O)c(O)c2)OC(=O)/C=C/c2ccc(O)c(O)c2)CC1 in the same way.
Response given: 35.2

Challenge: Consider next the compound O=C(/C=C/c1ccc(O)c(O)c1)O[C@H](Cc1ccc(O)c(O)c1)C(=O)NCc1ccccc1 in the same way.
Response given: 111

Challenge: Consider next the compound O=C(/C=C/c1ccc(O)c(O)c1)O[C@H](Cc1ccc(O)c(O)c1)C(=O)O in the same way.
Response given: 134

Challenge: Consider next the compound CCN(CC)CCCNC(=O)[C@@H](Cc1ccc(O)c(O)c1)OC(=O)/C=C/c1ccc(O)c(O)c1 in the same way.
Response given: 42.3
